Target: Peroxisome proliferator-activated receptor gamma/Nuclear receptor coactivator 1 (Homo sapiens)
Sequence (P37231 whole entry): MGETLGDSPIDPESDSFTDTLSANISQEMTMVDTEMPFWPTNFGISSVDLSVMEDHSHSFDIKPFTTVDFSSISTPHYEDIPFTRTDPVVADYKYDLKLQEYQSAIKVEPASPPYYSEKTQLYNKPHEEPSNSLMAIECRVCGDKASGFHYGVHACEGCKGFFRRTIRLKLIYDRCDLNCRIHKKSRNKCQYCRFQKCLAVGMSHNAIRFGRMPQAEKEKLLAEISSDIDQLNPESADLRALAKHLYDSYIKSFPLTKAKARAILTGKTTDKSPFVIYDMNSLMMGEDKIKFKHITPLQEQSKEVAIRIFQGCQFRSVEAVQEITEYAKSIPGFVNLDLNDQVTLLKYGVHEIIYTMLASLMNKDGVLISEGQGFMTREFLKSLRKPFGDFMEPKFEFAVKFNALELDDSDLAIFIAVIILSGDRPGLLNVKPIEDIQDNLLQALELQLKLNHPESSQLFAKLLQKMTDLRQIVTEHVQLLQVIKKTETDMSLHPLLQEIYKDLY
Sequence (Q15788 whole entry, further chain): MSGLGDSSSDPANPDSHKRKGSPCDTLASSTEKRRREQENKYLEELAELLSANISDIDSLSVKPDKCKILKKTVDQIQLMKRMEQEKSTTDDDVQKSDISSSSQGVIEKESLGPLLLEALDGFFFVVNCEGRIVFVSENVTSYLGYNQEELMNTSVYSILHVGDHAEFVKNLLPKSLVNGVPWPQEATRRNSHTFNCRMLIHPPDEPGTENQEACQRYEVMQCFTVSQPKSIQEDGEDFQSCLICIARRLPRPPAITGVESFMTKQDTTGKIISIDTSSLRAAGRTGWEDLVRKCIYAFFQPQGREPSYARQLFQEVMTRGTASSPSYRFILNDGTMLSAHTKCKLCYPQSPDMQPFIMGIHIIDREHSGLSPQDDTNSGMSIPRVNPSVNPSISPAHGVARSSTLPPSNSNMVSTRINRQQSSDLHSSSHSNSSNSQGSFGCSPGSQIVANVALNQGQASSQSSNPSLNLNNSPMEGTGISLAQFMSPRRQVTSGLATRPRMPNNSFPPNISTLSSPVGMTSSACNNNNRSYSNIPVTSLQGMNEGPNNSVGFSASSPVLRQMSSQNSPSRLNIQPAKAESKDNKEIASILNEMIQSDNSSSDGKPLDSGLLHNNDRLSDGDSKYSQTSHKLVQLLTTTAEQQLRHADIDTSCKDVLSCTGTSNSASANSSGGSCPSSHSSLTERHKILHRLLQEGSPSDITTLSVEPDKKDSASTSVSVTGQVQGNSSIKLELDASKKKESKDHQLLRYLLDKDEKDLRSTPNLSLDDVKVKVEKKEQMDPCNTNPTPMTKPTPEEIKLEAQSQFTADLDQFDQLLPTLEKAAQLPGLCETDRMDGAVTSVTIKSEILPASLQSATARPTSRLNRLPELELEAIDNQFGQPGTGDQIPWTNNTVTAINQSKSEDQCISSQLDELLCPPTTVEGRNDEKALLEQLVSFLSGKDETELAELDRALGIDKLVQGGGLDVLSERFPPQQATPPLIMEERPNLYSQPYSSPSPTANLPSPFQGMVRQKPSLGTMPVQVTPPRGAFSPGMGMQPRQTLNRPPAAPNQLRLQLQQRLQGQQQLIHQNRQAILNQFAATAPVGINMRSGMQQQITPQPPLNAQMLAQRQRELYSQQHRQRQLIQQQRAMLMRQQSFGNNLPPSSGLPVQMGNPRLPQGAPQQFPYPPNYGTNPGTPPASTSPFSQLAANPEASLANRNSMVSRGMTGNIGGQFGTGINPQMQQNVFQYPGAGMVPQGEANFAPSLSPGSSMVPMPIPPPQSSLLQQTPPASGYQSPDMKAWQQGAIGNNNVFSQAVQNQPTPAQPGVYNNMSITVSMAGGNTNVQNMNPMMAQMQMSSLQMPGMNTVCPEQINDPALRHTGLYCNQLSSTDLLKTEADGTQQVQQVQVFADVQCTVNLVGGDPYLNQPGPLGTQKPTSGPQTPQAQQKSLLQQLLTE
Experiment: TR-FRET dose response biochemical High Throughput Screening assay for agonists of the steroid receptor coactivator 1 (SRC-1) recruitment by the peroxisome proliferator-activated receptor gamma (PPAR gamma): non-selective agonists. [Related pubchem assays (depositor defined):AID1300, AID1808, AID504735, AID631]
Assay type: protein assay
The source made the active and inactive calls.
property measured: EC50

Consider the following illustrative entries.
                            smiles_notation    experimental_value
0  CCn1c(=O)cc(SCC(=O)NCc2ccc3c(c2)OCO3)c2ccccc21  > 79.4 µM (inactive)
1  CCn1c(=O)cc(SCC(=O)N2CCC3(CC2)OCCO3)c2ccccc21  > 79.4 µM (inactive)
2  O=C(Nc1ccc(S(=O)(=O)Nc2ncccn2)cc1)c1ccc(Br)s1  > 79.4 µM (inactive)

Please look at the following compound next.
For this compound ( COc1cccc(OC)c1C(=O)Nc1nnc(-c2cccs2)s1 ), measured EC50 is 17.7 µM (inactive)

----------
Biological target: Heat shock factor protein 1 (Mus musculus, UniProt P38532)
Sequence (P38532 whole entry): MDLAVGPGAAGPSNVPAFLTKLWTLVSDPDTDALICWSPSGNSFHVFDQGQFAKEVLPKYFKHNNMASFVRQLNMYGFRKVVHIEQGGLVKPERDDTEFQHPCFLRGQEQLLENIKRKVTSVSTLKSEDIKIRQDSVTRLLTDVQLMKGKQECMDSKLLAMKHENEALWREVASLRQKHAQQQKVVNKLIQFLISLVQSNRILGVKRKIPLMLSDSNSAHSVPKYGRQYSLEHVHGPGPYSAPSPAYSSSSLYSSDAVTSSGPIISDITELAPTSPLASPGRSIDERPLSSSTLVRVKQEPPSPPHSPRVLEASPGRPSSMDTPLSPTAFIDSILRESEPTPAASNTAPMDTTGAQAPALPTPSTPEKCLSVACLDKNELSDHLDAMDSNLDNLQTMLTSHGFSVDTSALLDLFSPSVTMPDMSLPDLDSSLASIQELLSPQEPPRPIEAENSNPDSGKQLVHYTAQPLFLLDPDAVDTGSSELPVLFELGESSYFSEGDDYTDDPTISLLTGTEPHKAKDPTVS
Assay: enhancement of HSF1-driven luciferase signal – cell-based, NIH3T3, luminescence, dose retest, confirmation (AID 435004);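 note: stress induced by proteasome inhibitor MG132 added 30 min after compound; luciferase reporter driven by HSF1 response element in NIH3T3 cells; actives raise luminescence as potentiators of the MG132 stress response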
Assay type: functional
The source made the active and inactive calls.
Choose the fitting class; nothing outside active, inactive is accepted.

Just curious, what result did Cc1ccc(S(=O)(=O)Nc2cccc3ncccc23)s1 get here?
active

----------
Target: Microphthalmia-associated transcription factor (Homo sapiens, UniProt O75030)
Sequence (O75030 whole entry): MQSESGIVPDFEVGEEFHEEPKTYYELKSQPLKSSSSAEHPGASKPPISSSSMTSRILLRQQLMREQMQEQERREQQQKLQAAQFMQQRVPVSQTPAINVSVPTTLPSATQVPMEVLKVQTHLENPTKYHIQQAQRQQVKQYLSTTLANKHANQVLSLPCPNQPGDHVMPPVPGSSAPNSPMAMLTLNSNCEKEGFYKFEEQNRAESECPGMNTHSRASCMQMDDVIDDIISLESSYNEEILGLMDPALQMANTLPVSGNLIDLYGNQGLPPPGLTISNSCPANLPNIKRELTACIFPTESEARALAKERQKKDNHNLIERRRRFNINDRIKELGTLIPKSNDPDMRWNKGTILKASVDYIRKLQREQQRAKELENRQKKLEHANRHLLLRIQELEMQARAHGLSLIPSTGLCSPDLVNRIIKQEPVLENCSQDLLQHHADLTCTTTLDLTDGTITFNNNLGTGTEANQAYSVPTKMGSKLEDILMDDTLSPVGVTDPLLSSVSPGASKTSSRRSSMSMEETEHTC
Assay: reducers of TRPM1 reporter luminescence, concentration series – cell-based, SK-MEL-5, cherry-picked, set 3, MITF inhibitor project, dose response (AID 493073);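 note: SK-MEL-5 melanoma cells with luciferase driven by the MITF target TRPM1 promoter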
Assay type: functional
Calls of active or inactive are those of the source.
property measured: AC50

Look over these answered cases.
In [3]: df
Out[3]:
                                   compound  experimental_value
0          Cn1nc([N+](=O)[O-])nc1S(C)(=O)=O     9.2 µM (active)
1       Oc1c(Cl)cc(Cl)cc1/C=N/Nc1ncc(Br)cn1    7.84 µM (active)
2  CC1(C)CC(NC(=O)c2ccc(Cl)c(S(=O)(=O)N(Cc3ccccc3)c3ccccc3)c2)CC(C)(C)N1    10.3 µM (active)
3  O=C(/C=C\c1ccccc1)NCC(=O)N/N=C/c1ccc(O)cc1O    7.99 µM (active)
4  CN(C)CC1CC/C(=C\c2ccc(O)cc2)C1=O (stereo not drawn)    12.9 µM (active)

// for each compound in input: emit AC50
1. CCN1CCN(C2=C(NS(=O)(=O)c3ccc(C)cc3)C(=O)c3ccccc3C2=O)CC1
2. OCCNc1c2ccccc2nc2ccccc12
3. Cc1ccc2nc(NC(=O)CCCC(=O)O)sc2c1

["4.18 µM (active)", "7.28 µM (active)", "12.1 µM (active)"]
